# tested target: hNPY2R (Homo sapiens)
# Construct: expressed in transfected cells; host or cells: HEK-293 cells carrying a CRE-luciferase reporter gene
# Sequence (P49146 whole entry): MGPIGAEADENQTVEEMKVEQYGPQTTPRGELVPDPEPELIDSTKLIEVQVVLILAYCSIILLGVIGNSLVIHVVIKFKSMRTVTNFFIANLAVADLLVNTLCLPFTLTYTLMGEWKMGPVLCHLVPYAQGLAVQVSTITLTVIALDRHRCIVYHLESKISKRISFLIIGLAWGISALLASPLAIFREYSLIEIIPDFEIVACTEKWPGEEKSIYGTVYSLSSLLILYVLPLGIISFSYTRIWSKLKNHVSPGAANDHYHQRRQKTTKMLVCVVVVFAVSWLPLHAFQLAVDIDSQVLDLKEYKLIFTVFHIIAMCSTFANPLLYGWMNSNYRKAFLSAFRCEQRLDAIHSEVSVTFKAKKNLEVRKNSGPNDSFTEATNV
# experimental protocol: hNPY2R CreLuc reporter gene assay in 0.5% and 100% plasma
# Type: cell-based
# assay setup: CreLuc reporter gene assay, 0.5% human plasma; read-out: hNPY2R 0.5% hP
Starred links: 1 amine or outer side, 2 acyl side, 3 side chain; linkers in the order of their positions; H or OH if unused. Non-standard residues stand in square brackets, D forms with d. Groups on a side chain read outwards from the residue. *: point of attachment. C20 diacid = O=C(O)CCCCCCCCCCCCCCCCCCC(=O)*; C18 diacid = O=C(O)CCCCCCCCCCCCCCCCC(=O)*; γGlu = O=C(O)[C@H](CCC(=O)[*:2])N[*:1]; AEEA = NCCOCCOCC(=O)O; Aib = CC(C)(N)C(=O)O

substance	output unit	EC50
H-Y[Aib]EGTFTSDYSI[Aib]LEKQAQ[Aib]AFVEWLIK([AEEA-AEEA-γGlu-γGlu-γGlu-γGlu-C18 diacid])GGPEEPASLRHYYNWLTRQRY-NH2 [Compound 161]	nM	11.5
H-Y[Aib]EGTFTSDYSI[Aib]LEKQAQ[Aib]AFVEWLIK([γGlu-γGlu-γGlu-γGlu-γGlu-γGlu-C20 diacid])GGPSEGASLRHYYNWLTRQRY-NH2 [Compound 305]	nM	18.3
H-Y[Aib]EGTFTSDYSI[Aib]LEKQAQ[Aib]AFVEWLIK([AEEA-AEEA-γGlu-γGlu-γGlu-γGlu-C20 diacid])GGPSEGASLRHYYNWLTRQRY-NH2 [Compound 287]	nM	13.3
